biological target: Human 5-HT6 Receptor (Homo sapiens, UniProt P50406); construct: expressed in transfected cells; host or cells: HEK293; experiment: Binding assay for human 5-HT6 receptor ([3H]LSD radioligand); details: human recombinant receptor in HEK293 cells, [3H]LSD 1.5 nM, 60 minutes at 37° C.; read-out: Radio-ligand binding data at 5-HT6 (h) Ki
Sequence (P50406 whole entry): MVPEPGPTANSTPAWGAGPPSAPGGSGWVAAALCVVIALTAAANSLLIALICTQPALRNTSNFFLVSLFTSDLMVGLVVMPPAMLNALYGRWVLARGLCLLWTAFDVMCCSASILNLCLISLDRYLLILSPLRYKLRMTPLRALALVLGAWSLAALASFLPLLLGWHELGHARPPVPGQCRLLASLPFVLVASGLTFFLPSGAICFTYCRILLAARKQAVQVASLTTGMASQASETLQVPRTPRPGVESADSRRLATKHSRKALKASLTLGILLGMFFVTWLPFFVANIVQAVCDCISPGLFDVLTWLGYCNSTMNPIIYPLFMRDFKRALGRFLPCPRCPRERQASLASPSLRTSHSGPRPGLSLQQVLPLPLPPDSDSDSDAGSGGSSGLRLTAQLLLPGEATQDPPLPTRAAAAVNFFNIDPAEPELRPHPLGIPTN
Quantity: Ki (nM)

Recorded Ki, per entry:
CN1CCN(Cc2ccc3c(ccn3S(=O)(=O)c3cccc(Cl)c3Cl)c2)CC1	18
Cl.Cl.O=S(=O)(c1ccccc1)n1ccc2cc(CN3CCNCC3)ccc21 [Compound 33, dihydrochloride]	2.52
CCN1CCN(Cc2ccc3c(ccn3S(=O)(=O)c3ccc(C(C)C)cc3)c2)CC1.Cl.Cl [Compound 8, dihydrochloride]	5.81

1: CC(C)c1ccc(S(=O)(=O)n2ccc3cc(CN4CCN(C)CC4)ccc32)cc1
2: CN1CCN(Cc2ccc3c(ccn3S(=O)(=O)c3cc(C(F)(F)F)ccc3Cl)c2)CC1
Incoming: Choose between 1 and 2 : whose measured Ki value is numerically larger? Write down the label attached to your selection.
Outgoing: 1

All figures here come from patent US8470830B2.
